Origin of the recorded values: PubChem BioAssay AID449750

assay.summary: non-covalent RecA intein splicing inhibitors, dose response, biochemical, cell-free, fluorescence, secondary screen (AID 449750)
The source made the active and inactive calls. The rule behind the calls is not given here.
Allowed answers: 1 = active, 0 = inactive

Observe how each entry below is paired with its result.
O=S(=O)(Nc1c(O)ccc2ccccc12)c1cccc2ccccc12	1
CC(=O)Nc1ccc(NC(=O)CSc2ncc(C(=O)Nc3ccccc3)c(=O)n2C)cc1	1
Cc1cc(F)ccc1S(=O)(=O)N(C(=O)c1ccncc1)c1ccc(OC(=O)c2ccncc2)cc1	0

INPUT: Please state the recorded outcome for this compound: `Cc1ccc(C)c(Sc2ccc(NC(=O)CCl)cc2)c1`
OUTPUT: 1

INPUT: Which outcome was entered for the compound CC1CCCN(C2=C(Cl)C(=O)N(c3cccc(Cl)c3)C2=O)C1 (stereo unspecified) in this test?
OUTPUT: 0

INPUT: Field: outcome | Entry: `Cc1ccc(SCC2=NNC(=O)C2)cc1`
OUTPUT: 1

INPUT: # fetch the recorded call for `O=c1[nH]c(/C=C/c2cccnc2)c([N+](=O)[O-])c(=O)[nH]1` here
OUTPUT: 0

INPUT: Lab log entry: `COc1ccc(N/C=C2\CCc3ccccc3C2=O)cc1` — outcome as called in the assay?
OUTPUT: 0

INPUT: Just curious, what result did COc1ccc(C(CCN(Cc2ccc(OC)c(OC)c2)C(=O)CCl)c2ccccc2)cc1 (stereo unspecified) get here?
OUTPUT: 1

INPUT: Identify the outcome logged in this assay for the compound shown: `Oc1ccc(/C=N/Nc2ccc(C(F)(F)F)cn2)c(O)c1`
OUTPUT: 0

INPUT: Could you check what this test reported for `Cc1ccc(C)c(-c2ccc(=O)n(Cc3cccc(Br)c3)n2)c1` ?
OUTPUT: 1
